- System: Huh7.5.1 cells
- Procedure summary: in vitro
- Condition details: human
Threshold check on CC50: strictly below 60 µM is yes (1); on or above 60 µM is no (0).

Examples from the recorded data:
Clc1ccc([C@@H](c2ccccc2)N2CCNCC2)cc1 [H (R)] = yes (1)
CCN1CCN([C@H](c2ccccc2)c2ccc(Cl)cc2)CC1 [Et (R)] = yes (1)
CN1CCC(N(c2ccccc2)c2ccccc2)CC1 = yes (1)
c1ccc(C(c2ccccc2)c2ccncc2)cc1 = no (0)

Q: Confirm or reject: CC50 of [2H]C([2H])([2H])N1CCN([C@H](c2ccccc2)c2ccc(Cl)cc2)CC1 [CD3 (R)] lies strictly below 60 µM
A: yes (1)

Q: Confirm or reject: CC50 of CCCN1CCN([C@H](c2ccccc2)c2ccc(Cl)cc2)CC1 [n-Pr (R)] lies strictly below 60 µM
A: yes (1)
